experimentalTarget: Sphingosine 1-phosphate receptor 5 (Homo sapiens)
Sequence (Q9H228 whole entry): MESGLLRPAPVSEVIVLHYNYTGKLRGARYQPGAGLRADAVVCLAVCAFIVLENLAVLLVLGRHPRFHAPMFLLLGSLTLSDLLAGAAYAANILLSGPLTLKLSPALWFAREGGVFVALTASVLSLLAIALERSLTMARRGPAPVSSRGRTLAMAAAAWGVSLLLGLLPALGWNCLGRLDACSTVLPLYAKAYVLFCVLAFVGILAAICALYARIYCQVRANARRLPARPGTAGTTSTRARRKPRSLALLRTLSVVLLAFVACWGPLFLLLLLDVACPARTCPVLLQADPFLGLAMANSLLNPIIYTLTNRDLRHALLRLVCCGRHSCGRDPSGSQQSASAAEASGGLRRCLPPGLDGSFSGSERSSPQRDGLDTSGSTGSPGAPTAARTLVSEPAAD
protocolSummary: Agonist activity at human S1P5 expressed in CHO-K1 cells coexpressing Gq/i5 assessed as calcium mobilization-induced bioluminescence change measured for 90 secs by fluorimetry

molSmiles	unitInfo	EC50
COc1ccncc1C(=O)NC(=O)Nc1ccc(-c2ccccc2)c(C(F)(F)F)c1	µM	4.3

---

Here the recorded solubility is given for each entry.
protocolSummary: Solubility of the compound in 0.01 M aqueous HCl
Type: physicochemical

molSmiles	unitInfo	inequalitySign	solubility
COc1ccccc1C(=O)NC(=O)Nc1ccc(-c2nccs2)c(C(F)(F)F)c1	µg/mL	=	1.1
COc1ccccc1C(=O)NC(=O)Nc1ccc(-c2ccccc2)c(C(F)(F)F)c1	µg/mL	<	1
COc1ccccc1C(=O)NC(=S)Nc1ccc(N2CCCCC2)c(Cl)c1	µg/mL	<	1
COc1ccccc1C(=O)NC(=O)Nc1ccc(C(C)C)c(C(F)(F)F)c1	µg/mL	<	1
COc1ccccc1C(=O)NC(=O)Nc1ccc(OCC(F)(F)F)c(C(F)(F)F)c1	µg/mL	<	1
COc1ccccc1C(=O)NC(=O)Nc1ccc(-c2ccccn2)c(C(F)(F)F)c1	µg/mL	=	28
COc1ccccc1C(=O)NC(=O)Nc1ccc(-c2ccccc2)c(C(C)C)c1	µg/mL	<	1
COc1ccccc1C(=O)NC(=O)Nc1ccc(N2CCCCC2)c(C(F)(F)F)c1	µg/mL	=	3
COc1ccccc1C(=O)NC(=O)Nc1ccc(N2CCCCC2)c(Cl)c1	µg/mL	=	3.6

---

protocolSummary: Solubility of the compound in simulated intestinal fluid
Assay type: physicochemical
reportedMetric: solubility

molSmiles	reportedMetric	result
COc1ccccc1C(=O)NC(=S)Nc1ccc(N2CCCCC2)c(Cl)c1	solubility	27 µg/mL
COc1ccccc1C(=O)NC(=O)Nc1ccc(-c2nccs2)c(C(F)(F)F)c1	solubility	12 µg/mL
COc1ccccc1C(=O)NC(=O)Nc1ccc(OCC(F)(F)F)c(C(F)(F)F)c1	solubility	2.2 µg/mL
COc1ccccc1C(=O)NC(=O)Nc1ccc(N2CCCCC2)c(Cl)c1	solubility	8.5 µg/mL
COc1ccccc1C(=O)NC(=O)Nc1ccc(-c2ccccn2)c(C(F)(F)F)c1	solubility	8.5 µg/mL

---

experimentalTarget: Sphingosine 1-phosphate receptor 1 (Homo sapiens, UniProt P21453)
Sequence (P21453 whole entry): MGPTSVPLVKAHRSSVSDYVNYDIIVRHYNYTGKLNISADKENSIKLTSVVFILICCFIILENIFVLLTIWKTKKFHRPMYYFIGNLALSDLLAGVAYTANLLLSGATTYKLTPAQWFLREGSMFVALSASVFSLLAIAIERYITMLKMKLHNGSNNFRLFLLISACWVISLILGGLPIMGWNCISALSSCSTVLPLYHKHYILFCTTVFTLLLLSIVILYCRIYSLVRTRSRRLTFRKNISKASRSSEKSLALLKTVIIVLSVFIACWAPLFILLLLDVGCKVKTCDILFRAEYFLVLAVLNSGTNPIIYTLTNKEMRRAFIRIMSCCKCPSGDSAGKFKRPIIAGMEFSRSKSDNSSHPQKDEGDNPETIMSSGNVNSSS
protocolSummary: Agonist activity at human S1P1 expressed in U2OS cells coexpressing eGFP assessed as receptor internalization after 1 hr by microscopic analysis
pEC50: −log10 of the molar value.
Reported values of pEC50 for individual entries
reportedMetric: pEC50

molSmiles	reportedMetric	numericValue
COc1ccccc1C(=O)NC(=O)Nc1ccc(-c2ccccc2)c(C(C)C)c1	pEC50	8.27
COc1ccccc1C(=O)NC(=O)Nc1ccc(-c2ccccn2)c(C(F)(F)F)c1	pEC50	7.89
COc1ccccc1C(=O)NC(=O)Nc1ccc(OCC(F)(F)F)c(C(F)(F)F)c1	pEC50	8.17
COc1ccccc1C(=O)NC(=O)Nc1ccc(-c2nccs2)c(C(F)(F)F)c1	pEC50	7.42
COc1ccccc1C(=O)NC(=O)Nc1ccc(N2CCCCC2)c(Cl)c1	pEC50	6.64
COc1ccccc1C(=O)NC(=O)Nc1ccc(-c2ccccc2)c(C(F)(F)F)c1	pEC50	7.17
COc1ccccc1C(=O)NC(=O)Nc1ccc(C(C)C)c(C(F)(F)F)c1	pEC50	7.85
COc1ccccc1C(=O)NC(=S)Nc1ccc(N2CCCCC2)c(Cl)c1	pEC50	6.37
COc1ccccc1C(=O)NC(=O)Nc1ccc(N2CCCCC2)c(C(F)(F)F)c1	pEC50	7.89

---

protocolSummary: Plasma concentration in Lewis rat at 1 mg/kg, po at 24 hrs
Format: ADME, organism-based
Set-up: dose 1 mg/kg, route oral
conditionInfo: Lewis, plasma
reportedMetric: concentration at 24 h (ng/mL)

molSmiles	numericValue
COc1ccccc1C(=O)NC(=O)Nc1ccc(-c2ccccn2)c(C(F)(F)F)c1	13
COc1ccccc1C(=O)NC(=O)Nc1ccc(OCC(F)(F)F)c(C(F)(F)F)c1	1
COc1ccccc1C(=O)NC(=O)Nc1ccc(-c2ccccc2)c(C(F)(F)F)c1	4.9
COc1ccccc1C(=O)NC(=O)Nc1ccc(-c2ccccc2)c(C(C)C)c1	7
COc1ccccc1C(=O)NC(=O)Nc1ccc(-c2nccs2)c(C(F)(F)F)c1	1

---

protocolSummary: Volume of distribution at steady state in Sprague-Dawley rat at 1 mg/kg, iv
Assay type: ADME, organism-based
Parameters: dose 1 mg/kg, route intravenous
conditionInfo: in vivo, read-out: Vdss

molSmiles	Vd (L/kg)
COc1ccncc1C(=O)NC(=O)Nc1ccc(-c2ccccc2)c(C(F)(F)F)c1	6.3

---

protocolSummary: AUC (0 to 48 hrs) in Sprague-Dawley rat at 1 mg/kg, iv
Format: ADME, organism-based
Parameters: time < 48 hr, dose 1 mg/kg, route intravenous
conditionInfo: plasma

molSmiles	AUC(0-t) at 48 h
COc1ccncc1C(=O)NC(=O)Nc1ccc(-c2ccccc2)c(C(F)(F)F)c1	3400 ng·h/mL

---

protocolSummary: Plasma concentration in Lewis rat at 0.3 mg/kg, po at 24 hrs
Type: ADME, organism-based
Parameters: dose 0.3 mg/kg, route oral

molSmiles	concentration at 24 h [ng/mL]
COc1ccncc1C(=O)NC(=O)Nc1ccc(-c2ccccc2)c(C(F)(F)F)c1	17

---

protocolSummary: AUC (0 to 48 hrs) in Sprague-Dawley rat at 3 mg/kg, po
Type: ADME, organism-based
Set-up: time < 48 hr, dose 3 mg/kg, route oral
conditionInfo: plasma
reportedMetric: AUC(0-t) at 48 h (ng·h/mL)

molSmiles	reportedMetric	numericValue
COc1ccncc1C(=O)NC(=O)Nc1ccc(-c2ccccc2)c(C(F)(F)F)c1	AUC(0-t) at 48 h	13000

---

protocolSummary: Bioavailability in Sprague-Dawley rat at 3 mg/kg, po and 1 mg/kg, iv
Format: ADME, organism-based
conditionInfo: in vivo
reportedMetric: bioavailability (%)

molSmiles	reportedMetric	unitInfo	numericValue
COc1ccncc1C(=O)NC(=O)Nc1ccc(-c2ccccc2)c(C(F)(F)F)c1	bioavailability	%	140

---

experimentalTarget: UniProt O95977
Sequence (O95977 whole entry): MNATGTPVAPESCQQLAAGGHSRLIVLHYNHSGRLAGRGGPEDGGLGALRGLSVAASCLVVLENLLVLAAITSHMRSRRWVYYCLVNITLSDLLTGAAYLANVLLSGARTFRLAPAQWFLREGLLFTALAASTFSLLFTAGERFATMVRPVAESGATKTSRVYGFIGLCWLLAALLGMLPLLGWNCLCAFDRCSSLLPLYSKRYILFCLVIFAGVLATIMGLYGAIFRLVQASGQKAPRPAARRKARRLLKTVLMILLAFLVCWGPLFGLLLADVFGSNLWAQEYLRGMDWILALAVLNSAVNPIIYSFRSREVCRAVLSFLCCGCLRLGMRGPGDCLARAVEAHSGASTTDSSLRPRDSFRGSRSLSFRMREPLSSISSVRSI
protocolSummary: Agonist activity at human S1P4 expressed in CHO-K1 cells coexpressing Gq/i5 assessed as calcium mobilization-induced bioluminescence change after measured for 90 secs by fluorimetry
pEC50: −log10 of the molar value.
reportedMetric: pEC50

molSmiles	result
COc1ccncc1C(=O)NC(=O)Nc1ccc(-c2ccccc2)c(C(F)(F)F)c1	< 4.30

---

protocolSummary: Clearance in Sprague-Dawley rat at 1 mg/kg, iv
Assay type: ADME, organism-based
Parameters: dose 1 mg/kg, route intravenous
conditionInfo: in vivo
reportedMetric: clearance (mL/min/kg)

molSmiles	reportedMetric	unitInfo	numericValue
COc1ccncc1C(=O)NC(=O)Nc1ccc(-c2ccccc2)c(C(F)(F)F)c1	clearance	mL/min/kg	4.17

---

experimentalTarget: UniProtKB P21453
protocolSummary: Agonist activity at human S1P1 expressed in U2OS cells coexpressing eGFP assessed as receptor internalization after 1 hr by microscopic analysis relative to 1-(4-(6-benzylbenzofuran-2-yl)-3-fluorobenzyl)azetidine-3-carboxylic acid
Format: functional, cell-based
Measured Efficacy values are reported for all entries that follow.

molSmiles	Efficacy, %
COc1ccccc1C(=O)NC(=O)Nc1ccc(N2CCCCC2)c(C(F)(F)F)c1	120
COc1ccccc1C(=O)NC(=S)Nc1ccc(N2CCCCC2)c(Cl)c1	87
COc1ccccc1C(=O)NC(=O)Nc1ccc(-c2ccccc2)c(C(C)C)c1	120
COc1ccccc1C(=O)NC(=O)Nc1ccc(-c2ccccn2)c(C(F)(F)F)c1	110
COc1ccccc1C(=O)NC(=O)Nc1ccc(C(C)C)c(C(F)(F)F)c1	110
COc1ccccc1C(=O)NC(=O)Nc1ccc(N2CCCCC2)c(Cl)c1	120
COc1ccccc1C(=O)NC(=O)Nc1ccc(-c2ccccc2)c(C(F)(F)F)c1	110
COc1ccccc1C(=O)NC(=O)Nc1ccc(OCC(F)(F)F)c(C(F)(F)F)c1	83
COc1ccccc1C(=O)NC(=O)Nc1ccc(-c2nccs2)c(C(F)(F)F)c1	130

---

protocolSummary: Intrinsic clearance in rat liver microsomes after 30 mins
Type: ADME, Microsome
conditionInfo: read-out: CLH

molSmiles	microsomal CLint
COc1ccncc1C(=O)NC(=O)Nc1ccc(-c2ccccc2)c(C(F)(F)F)c1	< 14 µL/min/mg
COc1ccccc1C(=O)NC(=O)Nc1ccc(C(C)C)c(C(F)(F)F)c1	< 14 µL/min/mg
COc1ccccc1C(=O)NC(=O)Nc1ccc(-c2ccccc2)c(C(C)C)c1	< 14 µL/min/mg
